System: Metaphire posthuma
Experiment: Antihelminthic activity against Metaphire posthuma assessed as time of occurrence of paralysis
Assay type: functional
quantity_measured: Time (min)
Express your answer in min, writing the number without its unit.

Examples with answers:
C1CNCCN1.C1CNCCN1.C1CNCCN1.O.O=C(O)CC(O)(CC(=O)O)C(=O)O.O=C(O)CC(O)(CC(=O)O)C(=O)O [PIPERAZINE CITRATE]; 100
CC(=O)Nc1ccc(S(=O)(=O)N2CCN(CCCC3C(=O)NCCNC3=O)CC2)cc1; 103
CC(=O)Nc1ccc(S(=O)(=O)N2CCN(CCCC3C(=O)NCCN=C3C)CC2)cc1 (stereo unspecified); 102
CC(=O)Nc1ccc(S(=O)(=O)N2CCN(CCCC3C(C)=NCCN=C3c3ccccc3)CC2)cc1 (stereo unspecified); 91
CC(=O)Nc1ccc(S(=O)(=O)N2CCN(CCCC3C(C)=NCCN=C3C)CC2)cc1; 92

Query :: // returns reported Time for input CC(=O)Nc1ccc(S(=O)(=O)N2CCN(CCCC3C(c4ccccc4)=NCCN=C3c3ccccc3)CC2)cc1
Result :: 93

Source of measurements: ChEMBL document CHEMBL3045277
